Data origin: patent US20250353874A1

target-or-test-system: hGR (GR-LBD) (Homo sapiens (Human), UniProt P04150)
Sequence (P04150 524-758): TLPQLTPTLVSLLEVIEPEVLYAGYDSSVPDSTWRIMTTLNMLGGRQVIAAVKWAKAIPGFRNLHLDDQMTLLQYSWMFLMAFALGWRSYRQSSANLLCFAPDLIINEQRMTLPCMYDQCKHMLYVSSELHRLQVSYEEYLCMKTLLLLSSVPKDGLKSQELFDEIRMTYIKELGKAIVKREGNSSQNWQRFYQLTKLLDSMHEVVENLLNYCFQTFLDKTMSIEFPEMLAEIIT
test-details: hGR CoActivator Recruitment Assay (LanthaScreen TR-Fret GR Coactivator Assay)
Format: biochemical
settings: 10-point dilution, top concentration 200 nM, positive control 4 uM dexamethasone, read-out: IC50
Description: hGR CoActivator Recruitment Assay The activity of glucocorticoid compounds was measured using the LanthaScreen TR-Fret GR Coactivator Assay from Life Technologies (A15899). […] The plate was incubated in the dark for two hours and then read on an Envision plate reader, with excitation at 340 nm and emission at 520 nm (Fluorescein) and 490 nm (Terbium). The emission ratio of 520/490 was analyzed in Genedata. […]
readout-label: IC50

What value of IC50 has been recorded for this entry: COc1ccc(OCc2cccc(N)c2)c(F)c1[C@@H]1O[C@@H]2C[C@H]3[C@@H]4CCC5=CC(=O)C=C[C@]5(C)[C@H]4[C@@H](O)C[C@]3(C)[C@]2(C(=O)CO)O1 [Example 4]
2.47 nM

Please do the same for Cc1ccc(OCc2cccc(N)c2)c(F)c1[C@@H]1O[C@@H]2C[C@H]3[C@@H]4CCC5=CC(=O)C=C[C@]5(C)[C@H]4[C@@H](O)C[C@]3(C)[C@]2(C(=O)CO)O1 [Example 1] as well.
2.12 nM

Entry to check: Cc1ccc(OCc2cccc(N)c2)c(F)c1[C@H]1O[C@@H]2C[C@H]3[C@@H]4CCC5=CC(=O)C=C[C@]5(C)[C@H]4[C@@H](O)C[C@]3(C)[C@]2(C(=O)CO)O1 [Example 2]
1.44 nM

Also, COc1ccc(OCc2cccc(N)c2)c(F)c1[C@H]1O[C@@H]2C[C@H]3[C@@H]4CCC5=CC(=O)C=C[C@]5(C)[C@H]4[C@@H](O)C[C@]3(C)[C@]2(C(=O)CO)O1 [Example 5] please.
1.4 nM
